assay: in vitro; type: cell-based, human; conditions: human
Consider the following compounds; for each one, report its log10 of CC50 at 48 h.
Remember, log10 of CC50 at 48 h, in µM.

# annotated cases, reported log10 of CC50 at 48 h shown
Oc1cc(O)cc(/C=C/c2ccc(O)cc2O)c1 [Compound 1, trans-2,3′,4,5′-tetrahydroxystilbene] :: 1.76
CC(=O)Oc1cc(CCc2ccc(OC(C)=O)cc2OC(C)=O)cc(OC(C)=O)c1 :: 2.08
COc1cc(C=Cc2ccc(OC)cc2OC)cc(OC)c1 :: 2.07
CC(=O)Oc1cc(C=Cc2ccc(OC(C)=O)cc2OC(C)=O)cc(OC(C)=O)c1 :: 1.89
COc1cc(CCc2ccc(OC)cc2OC)cc(OC)c1 :: 2.11
CC(=O)Oc1cc(OC(C)=O)cc(C(F)C(F)c2ccc(OC(C)=O)cc2OC(C)=O)c1 (stereo not drawn) :: 1.07
COc1cc(OC)cc(C(F)C(OC)c2ccc(OC)cc2OC)c1 (stereo not drawn) :: 1.72

Given item Oc1cc(O)cc(CCc2ccc(O)cc2O)c1 [Compound 4, 2,3′,4,5′-tetrahydroxybibenzyl] , the value recorded as its log10 of CC50 at 48 h is 2.03
